src = PubChem BioAssay AID573

Reported growth inhibition by item:
experiment: growth inhibitors of E. coli tolC mutant, primary screen, strain BW25113 ΔtolC::kan, 384-well (AID 573); conditions: OD615, hits give high values, screened at 10 µM (by protocol);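 further: growth measured after 20 h incubation at 37 °C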
Among all 65,000 compounds or so, about 1,400 (2.2%) were called active. Shown is part of a subset that was picked to be rich in actives.
Write the value in % as a bare number.

See these solved cases before continuing.
• CCOc1ccc(CC(=O)Nc2ccc(S(=O)(=O)Nc3cc(C)on3)cc2)cc1OCC = 4.16
• CCOC(=O)C1CCN(C(=O)c2oc3ccc(S(=O)(=O)N4CCCCCC4)cc3c2C)CC1 = 77.3
• COc1ccc(CCNC(=O)c2ccco2)cc1 = -4.03
• CNC(=O)Nc1cc(C(C)(C)C)no1 = -22.1
• CS(=O)(=O)N(CC(=O)N1CCN(c2cccc(Cl)c2)CC1)c1ccccc1 = 1.41
• O=C(NCCCNCc1ccccc1)c1ccc(/C=N/O)nc1 = -12.5
• O=C(CCCN1C(=O)CSc2ncccc21)N1CCN(c2cccc(C(F)(F)F)c2)CC1 = 17.9
• Cc1cc(C)nc(N2CCN(c3ncnc4c3oc3ccccc34)CC2)n1 = -15.7

In plain terms, COc1ccccc1N1CCN(C(=O)CN(Cc2ccc(Cl)cc2)S(C)(=O)=O)CC1 has a documented growth inhibition of 25.9

In plain terms, O=C(Nc1ccccc1N1CCCCC1)c1ccc2nccnc2c1 has a documented growth inhibition of 28.8

In plain terms, COc1ccc(CCNS(=O)(=O)c2ccc(F)cc2)cc1OC has a documented growth inhibition of -5.35

In plain terms, COc1cccc(N(C(=O)c2ccn[nH]2)C2(C(=O)Nc3c(C)cccc3C)CCCCC2)c1 has a documented growth inhibition of 30.5

In plain terms, CC(C)(CSc1nncn1/N=C/c1ccco1)NS(=O)(=O)c1ccc(Cl)cc1 has a documented growth inhibition of 15.6

In plain terms, COC(=O)CNS(=O)(=O)c1ccc(Cc2ccc(S(=O)(=O)NCC(=O)OC)cc2)cc1 has a documented growth inhibition of 69.7

In plain terms, CC1CCCN(c2ccc(C(=O)NCCc3ccccc3)cn2)C1 (centres undefined) has a documented growth inhibition of 61.4

In plain terms, O=C(Nc1ccccc1N1CCCCC1)c1cccc(F)c1 has a documented growth inhibition of 100
